- System: Klebsiella pneumoniae
- Procedure Details: Antibacterial activity against Klebsiella pneumoniae measured after 18 to 20 hrs by broth microdilution method
- Format: functional
- Details: time 18-20 hrs
MIC listing for selected compounds.
Observed Property: MIC (µM)

>>> quantitative_readout("O=C(O)c1cn(C2CC2)c2cc(N3CCNCC3)c(F)cc2c1=O")
2
>>> quantitative_readout("CO[C@H]1/C=C/O[C@@]2(C)Oc3c(C)c(O)c4c(O)c(c(/C=N/N5CCN(C)CC5)c(O)c4c3C2=O)NC(=O)/C(C)=C\\C=C\\[C@H](C)[C@H](O)[C@@H](C)[C@@H](O)[C@@H](C)[C@H](OC(C)=O)[C@@H]1C")
16
